test system: LCLC-97TM1; assay: cells; assay type: functional, cell-based; settings: Homo sapiens;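 further: cell viability assay measuring growth inhibition of human LCLC-97TM1 cells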
Description: SANGER: Inhibition of human LCLC-97TM1 cell growth in a cell viability assay.
Can you tell me IC50 for the items I'm about to list?
# output: bare number, implied unit nM

Tested system LCLC-97TM1; IC50 recorded for CO[C@@]12[C@H](COC(N)=O)C3=C(C(=O)C(C)=C(N)C3=O)N1C[C@@H]1N[C@@H]12 was 139

Value (IC50, LCLC-97TM1) for record N#C/C(=C1/Nc2ccccc2S1)c1ccnc(NCCc2cccnc2)n1 = 2120

# IC50 measured on LCLC-97TM1 for item O=c1[nH]c2ccccc2n1C1CCN(Cc2ccc(-c3nc4cc5[nH]cnc5cc4nc3-c3ccccc3)cc2)CC1 = 2300

Tested on LCLC-97TM1, the item C[C@]12O[C@H](C[C@]1(O)CO)n1c3ccccc3c3c4c(c5c6ccccc6n2c5c31)CNC4=O showed IC50 equal to 427

---

Please provide measured pIC50 for the entries that follow.
tested on: NCI-H661; assay: cells; format: functional, cell-based; conditions: Homo sapiens;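 further: cell viability assay read-out, IC50 being the concentration that inhibits growth of the cells by half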
Description: SANGER: Inhibition of human NCI-H661 cell growth in a cell viability assay.
pIC50: −log10 of the molar value.

Test item CC(O)(CS(=O)(=O)c1ccc(F)cc1)C(=O)Nc1ccc(C#N)c(C(F)(F)F)c1 (stereo not drawn) [BICALUTAMIDE] ; NCI-H661; reported pIC50 was < 5.99

Entry O=c1[nH]c2ccccc2n1C1CCN(Cc2ccc(-c3nc4cc5[nH]cnc5cc4nc3-c3ccccc3)cc2)CC1 under NCI-H661 had pIC50 of < 5.59

Value sought: pIC50, system NCI-H661, item CC[C@@]1(O)C(=O)OCc2c1cc1n(c2=O)Cc2cc3ccccc3nc2-1 . Result: 7.87

Entry CC(C)=CC[C@@H](O)C1=CC(=O)c2c(O)ccc(O)c2C1=O : pIC50 on NCI-H661 = 5.27

Log: NCI-H661, molecule C/C(O)=C(\C#N)C(=O)Nc1cc(Br)ccc1Br , pIC50 = < 4.80

Entry C[C@]12O[C@H](C[C@]1(O)CO)n1c3ccccc3c3c4c(c5c6ccccc6n2c5c31)CNC4=O under NCI-H661 had pIC50 of < 5.70

Field pIC50 (NCI-H661), entry COc1cc(Nc2c(C#N)cnc3cc(OCCCN4CCN(C)CC4)c(OC)cc23)c(Cl)cc1Cl : < 5.70

Record Cn1c(=O)n(-c2ccc(C(C)(C)C#N)cc2)c2c3cc(-c4cnc5ccccc5c4)ccc3ncc21 / NCI-H661, pIC50 recorded as 6.82

---

test system: RMG-I; assay: cells; assay type: functional, cell-based; conditions: Homo sapiens;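 further: growth inhibition of human RMG-I cells, read out with a cell viability assay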
Description: SANGER: Inhibition of human RMG-I cell growth in a cell viability assay.
Measured property: IC50 (nM)
Please state the figure in nM; there is no need to write the unit.

IC50 of Fc1cc(-c2cc[nH]/c(=N/c3ccc(-n4cnc(N5CCOCC5)n4)cc3)n2)cc(N2CCOCC2)c1 , assay on RMG-I, is 1250

So the reported IC50 for Cn1c(=O)n(-c2ccc(C(C)(C)C#N)cc2)c2c3cc(-c4cnc5ccccc5c4)ccc3ncc21 , on RMG-I, turned out to be 468

---

Exercise: for every item that follows, state its recorded IC50.
tested on: SNU-C1; experiment: cells; assay type: functional, cell-based; details: Homo sapiens;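 further: growth inhibition of SNU-C1 human cells, read out by a cell viability assay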
Description: SANGER: Inhibition of human SNU-C1 cell growth in a cell viability assay.

Entry CO[C@@]12[C@H](COC(N)=O)C3=C(C(=O)C(C)=C(N)C3=O)N1C[C@@H]1N[C@@H]12 [MITOMYCIN] under SNU-C1 had IC50 of 1910 nM

SNU-C1 data for C/C=C(/C)C(=O)O[C@H]1C(C)=C2[C@H]([C@@H]1OC(=O)CCCCCCC)[C@@](C)(OC(C)=O)C[C@H](OC(=O)CCC)[C@@]1(O)[C@H]2OC(=O)[C@@]1(C)O [THAPSIGARGIN] ; its IC50: > 512 nM

// IC50 (SNU-C1) for Cc1nc(Nc2ncc(C(=O)Nc3c(C)cccc3Cl)s2)cc(N2CCN(CCO)CC2)n1 [DASATINIB] = > 1280 nM

Let me check: CCNC(=O)c1noc(-c2cc(C(C)C)c(O)cc2O)c1-c1ccc(CN2CCOCC2)cc1 [LUMINESPIB] , system SNU-C1, measured IC50 is > 256 nM

Summary line: O=c1[nH]c2ccccc2n1C1CCN(Cc2ccc(-c3nc4cc5[nH]cnc5cc4nc3-c3ccccc3)cc2)CC1 , SNU-C1, reported IC50 = 2010 nM

Note to self: IC50 of Cc1ccc(NC(=O)c2cccc(C(C)(C)C#N)c2)cc1Nc1ccc2ncn(C)c(=O)c2c1 with SNU-C1 was > 4000 nM
